Data origin, for the record: ChEMBL document CHEMBL2363022

// Toxicity lookup, one value per entry
# System: Schistosoma mansoni
# Format: functional
# Parameters: scale not given here
value-kind: Toxicity

INSERT INTO results (compound, reported) VALUES
  ('CCCc1cc(O)c2c3c(c(=O)oc2c1)CN(C)CC3', 0),
  ('COc1cccc(NC(=O)Cn2c(C)c(C#N)c3ccccc32)c1', 0),
  ('Cc1cc(N2CCN(C3CCCC3)CC2)n2c(nc3ccccc32)c1C#N', 0),
  ('COc1cc(OC)cc(N2C(=O)N(Cc3ccc(C(C)(C)C)cc3)c3ccccc3S2(=O)=O)c1', 0),
  ('CC(C)CNC(=O)c1c(N)n(CCc2ccccc2F)c2nc3ccccc3nc12', 0),
  ('O=C(Nc1ccc(Br)cc1)Nc1cccc(Cl)c1', 0),
  ('CN1CCN(c2ccc(Nc3c4ccccc4nc4ccccc34)cc2)CC1', 2),
  ('CC(=O)c1ccc(NC(=O)CSc2nc(-c3ccccc3Cl)ns2)cc1', 0),
  ('CC1CCN(Cc2c(O)ccc3cc(-c4nc5ccccc5s4)c(=O)oc23)CC1', 0),
  ('CCn1c(CN2CCN(Cc3ccccc3)CC2)nc2cc(NC(=O)c3cccs3)ccc21', 0),
  ('CCOc1ccc2nc(C)cc(Nc3ccc(Br)cc3)c2c1', 2),
  ('COc1cccc(C=Cc2nc(=O)c3ccccc3o2)c1OC', 0),
  ('CCN(CC)CCNc1ncnc2c1[nH]c1ccc(Br)cc12', 4),
  ('COc1ccc(N2CCN(C(CNC(=O)C3CCCCC3)c3ccc4c(c3)OCO4)CC2)cc1 (centres undefined)', 0);

====

// Toxicity lookup, one value per entry
# Test system: Schistosoma mansoni
# Type: functional
# Set-up: scale not given here
value-kind: Toxicity

INSERT INTO assay_data (molecule, reported) VALUES
  ('CCCCCCC(O)(c1ccc(F)cc1)C(CN1CCOCC1)c1ccccc1.Cl (configuration not stated)', 0),
  ('CCOC(=O)c1cnc2c(C)cc(C)cc2c1Nc1ccc(OC)c(OC)c1', 0),
  ('Oc1ccc(-c2nc(-c3ccc4oc5ccc(-c6[nH]c(-c7ccc(O)cc7)nc6-c6ccccc6)cc5c4c3)c(-c3ccccc3)[nH]2)cc1', 0),
  ('CC(C)OCc1cc(CN2CCN(c3cccc(Cl)c3)CC2)c(O)c2ncccc12', 2),
  ('CCOc1ccccc1CNC(=O)C1c2ccccc2C(=O)N(CC(C)C)C1c1cccs1 (configuration not stated)', 0),
  ('CC1CC2=C(CC1CNCCCN(C)C)C(C)(C)CCC2 (configuration not stated)', 4),
  ('COc1ccc(CCN2CCC(CN(C)Cc3cnn(-c4ccccc4)c3)CC2)cc1', 2);
